Target: Neuronal acetylcholine receptor; alpha4/beta2 (Rattus norvegicus) (UniProt P09483+P12390)
Assay: Displacement of [3H]nicotine from alpha4beta2 nAChR in rat brain membrane at 100 nM
Assay type: cell membranes
READOUT: Activity (%)
Answers are plain numbers, in %.

Cc1cc(C)c[n+](CCCC#Cc2cc(C#CCCC[n+]3cc(C)cc(C)c3)c(C#CCCC[n+]3cc(C)cc(C)c3)cc2C#CCCC[n+]2cc(C)cc(C)c2)c1; 0
Cc1cc[n+](CCCC#Cc2cc(C#CCCC[n+]3ccc(C)cc3)c(C#CCCC[n+]3ccc(C)cc3)cc2C#CCCC[n+]2ccc(C)cc2)cc1; 24
c1ccc(-c2ccc[n+](CCCCCc3cc(CCCCC[n+]4cccc(-c5ccccc5)c4)c(CCCCC[n+]4cccc(-c5ccccc5)c4)cc3CCCCC[n+]3cccc(-c4ccccc4)c3)c2)cc1; 6.6
C(#Cc1cc(C#CCCC[n+]2ccc3ccccc3c2)c(C#CCCC[n+]2ccc3ccccc3c2)cc1C#CCCC[n+]1ccc2ccccc2c1)CCC[n+]1ccc2ccccc2c1; 0
CN1CCC[C@H]1c1ccc[n+](CCCCCc2cc(CCCCC[n+]3cccc([C@@H]4CCCN4C)c3)c(CCCCC[n+]3cccc([C@@H]4CCCN4C)c3)cc2CCCCC[n+]2cccc([C@@H]3CCCN3C)c2)c1; 7.4

Give one value of Activity per listed compound.
1. C(#Cc1cc(C#CCCC[n+]2cccc(-c3ccccc3)c2)c(C#CCCC[n+]2cccc(-c3ccccc3)c2)cc1C#CCCC[n+]1cccc(-c2ccccc2)c1)CCC[n+]1cccc(-c2ccccc2)c1
2. Cc1ccc[n+](CCCC#Cc2cc(C#CCCC[n+]3cccc(C)c3)c(C#CCCC[n+]3cccc(C)c3)cc2C#CCCC[n+]2cccc(C)c2)c1
3. Cc1cc(C)c[n+](CCCCCc2cc(CCCCC[n+]3cc(C)cc(C)c3)c(CCCCC[n+]3cc(C)cc(C)c3)cc2CCCCC[n+]2cc(C)cc(C)c2)c1
4. Cc1ccc[n+](CCCCCc2cc(CCCCC[n+]3cccc(C)c3)c(CCCCC[n+]3cccc(C)c3)cc2CCCCC[n+]2cccc(C)c2)c1
5. Cc1cc[n+](CCCCCc2cc(CCCCC[n+]3ccc(C)c(C)c3)c(CCCCC[n+]3ccc(C)c(C)c3)cc2CCCCC[n+]2ccc(C)c(C)c2)cc1C
6. OCCCc1ccc[n+](CCCC#Cc2cc(C#CCCC[n+]3cccc(CCCO)c3)c(C#CCCC[n+]3cccc(CCCO)c3)cc2C#CCCC[n+]2cccc(CCCO)c2)c1

Data returned:
1. 0.3
2. 11
3. 3.7
4. 12
5. 0.5
6. 0

Data request: Fill blank: measured Activity of the compound C(#Cc1cc(C#CCCC[n+]2cccc(Cc3ccccc3)c2)c(C#CCCC[n+]2cccc(Cc3ccccc3)c2)cc1C#CCCC[n+]1cccc(Cc2ccccc2)c1)CCC[n+]1cccc(Cc2ccccc2)c1 is ____.
Data returned: 2.9

Provenance of the data: ChEMBL document CHEMBL1143440
